tested on: Saccharomyces cerevisiae; experiment: protein stability index of tFT-peptide fusion in wild type (PSI (0-1 scale)); higher = more stable (slower turnover); details: genetic background: wild type;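 note: PSI derived as read-weighted mean over the 8 sorting bins, only variants exceeding 10 total reads kept, mCherry placed adjacent to the peptide and sfGFP distal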
The sequences listed here are annotated with their protein stability index.

{"sequence chain": "CWVSLPILLFFR", "protein stability index": 0.0534}
{"sequence chain": "VRGAVQGWRLVG", "protein stability index": 0.157}
{"sequence chain": "PDNRNHLIKLLN", "protein stability index": 0.171}
{"sequence chain": "VRGAVGGGRLVG", "protein stability index": 0.564}
{"sequence chain": "RLIQALPVQFLN", "protein stability index": 0.0525}
{"sequence chain": "GLYMCSVGCWFRC", "protein stability index": 0.188}
{"sequence chain": "VRGADGGWRLVG", "protein stability index": 0.438}
{"sequence chain": "RSDRVLLPLYFR", "protein stability index": 0.352}
{"sequence chain": "VRMAVGGWRLVG", "protein stability index": 0.132}
{"sequence chain": "KKHKKGQKQKING", "protein stability index": 0.293}
{"sequence chain": "PGKRNHLIKLLN", "protein stability index": 0.127}
{"sequence chain": "PSLVASFWRVVG", "protein stability index": 0.137}
{"sequence chain": "LVVYLSCVACIQ", "protein stability index": 0.0107}
{"sequence chain": "RSLCVLLPLYFR", "protein stability index": 0.247}
{"sequence chain": "FSVRWTFRYWVN", "protein stability index": 0.0298}
{"sequence chain": "KKHKKGQRQKIN", "protein stability index": 0.0819}
{"sequence chain": "LVVYTSCVACIN", "protein stability index": 0.0172}
{"sequence chain": "VRGAVGGWRLNG", "protein stability index": 0.234}
{"sequence chain": "KKHKKYQKQKIN", "protein stability index": 0.0518}
